Entries annotated with measured pIC50
Tested on: IL-4 stimulated CD23 upregulation in human Ramos B cells (JAK-1/JAK-3, Stat-6)
Assay: Assay for Ramos B-Cell Line Stimulated with IL-4 (CD23 upregulation, FACS)
Format: cell-based
Conditions: Table III Example 3
pIC50: −log10 of the molar value.
Readout Label: pIC50

> print(dat)
                                    compound  numeric.result
 1  C#CCNS(=O)(=O)c1cccc(Nc2ncc(C)c(Nc3ccc(CNS(=O)(=O)C4CC4)cc3)n2)c1 [Compound I-165]            7.46
 2  Cc1cnc(Nc2cccc(S(N)(=O)=O)c2)nc1Nc1ccc(CNS(=O)(=O)C(C)C)cc1 [Compound I-118]            7.40
 3  COCCNS(=O)(=O)c1ccc(Nc2ncc(C)c(Nc3ccc(CNS(=O)(=O)C4CC4)cc3)n2)cc1 [Compound I-183]            7.18
 4  CN1CCC(NS(=O)(=O)Cc2cccc(Nc3nc(Nc4cccc(S(N)(=O)=O)c4)ncc3F)c2)CC1 [Compound I-108]            5.29
 5  Cc1ccc(Nc2ncc(C)c(Nc3ccc(CNS(=O)(=O)C4CC4)cc3)n2)cc1S(=O)(=O)NCc1ccccc1 [Compound I-195]            7.18
 6  CCCC(=O)NS(=O)(=O)c1ccc(Nc2ncc(C)c(Nc3ccc(CN(C(=O)CCC)S(=O)(=O)C4CC4)cc3)n2)cc1 [Compound I-204]            5.98
 7  CCS(=O)(=O)N[C@@H](C)c1ccc(Nc2nc(Nc3ccc(S(N)(=O)=O)cc3)ncc2F)cc1 [Compound I-26]            6.60
 8  Cc1ccc(Nc2ncc(C)c(Nc3ccc(CNS(=O)(=O)c4cccnc4)cc3)n2)cc1S(N)(=O)=O [Compound I-101]            7.20
 9  CNS(=O)(=O)c1cccc(Nc2ncc(C)c(Nc3ccc(CNS(=O)(=O)C4CC4)cc3)n2)c1 [Compound I-161]            7.78
10  CNS(=O)(=O)c1cccc(Nc2ncc(C)c(Nc3cccc(CNS(=O)(=O)C4CC4)c3)n2)c1 [Compound I-162]            7.24
11  Cc1cnc(Nc2ccc(S(=O)(=O)Nc3ccccc3)cc2)nc1Nc1ccc(CNS(=O)(=O)C2CC2)cc1 [Compound I-149]            7.08
12  CCCN(Cc1ccc(Nc2nc(Nc3cccc(S(N)(=O)=O)c3)ncc2C)cc1)S(=O)(=O)C1CC1 [Compound I-80]            7.43
13  CCC(=O)NS(=O)(=O)c1ccc(Nc2ncc(C)c(Nc3ccc(CN(C(=O)CC)S(=O)(=O)C4CC4)cc3)n2)cc1 [Compound I-77]            5.91
14  Cc1cnc(Nc2ccc(S(N)(=O)=O)cc2)nc1Nc1ccc(CN(C)S(=O)(=O)C2CC2)cc1 [Compound I-127]            6.90
